src = patent US20240252677A1

# Size (d, nm) listing for each entry below
assay: Dimensions (size, PDI) of DNPs co-assembled from IAJDs and Luc-mRNA by DLS; type: physicochemical; conditions: Table 16; DNPs from IAJD 4 mg/mL and Luc-mRNA 0.10 mg/mL by injection in acetate buffer (10 mM, pH 4.0)
Numeric answer only, unit nm assumed.

| Compound | Units | Measured value |
| --- | --- | --- |
| CCCCCCCCCCCOc1cc(COC(=O)CCCN2CCN(CCO)CC2)cc(OCCCCCCCCC)c1 [IAJD 122] | nm | 215 |
| CCCCCCCCCCCCCCCCOc1cc(COC(=O)CCCN2CCN(CCO)CC2)cc(OCCCCCCCCCCC)c1 [IAJD 120] | nm | 212 |
| CCCCCCCCCCCCCCCCCCOc1cc(COC(=O)CCCN2CCN(CCO)CC2)cc(OCCCCCCCCCCCCCCC)c1 [IAJD 154] | nm | 429 |
| CCCCCCCCCCCCCCCOc1cc(COC(=O)CCCN2CCN(CCO)CC2)cc(OCCCCCCCCCC)c1 [IAJD 142] | nm | 230 |
| CCCCCCCCCCCCCCCCCCOc1cc(COC(=O)CCCN2CCN(C)CC2)cc(OCCCCCCCCCCCCC)c1 [IAJD 177] | nm | 159 |

The compound identified as CCCCCCCCCCCCCCOc1cc(COC(=O)CCCN2CCN(CCO)CC2)cc(OCCCCCCCCCCCCC)c1 [IAJD 172] registered its Size (d, nm) at 235

Size (d, nm) reported for this compound CCCCCCCCCCCCCOc1cc(COC(=O)CCCN2CCN(CCO)CC2)cc(OCC(CC)CCCC)c1 (centres unmarked) [IAJD 162] : 191

Noted for CCCCCCCCCCCCCCCOc1cc(COC(=O)c2cc(OCCOCCOCCCC(=O)CCCN3CCCCC3)c(OCCOCCOCCOCc3ccccc3)c(OCCOCCOCCOC(=O)CCCN3CCCCC3)c2)cc(OCCCCCCCCCCC)c1 [IAJD 157] : its Size (d, nm) reads 68
